- Test system: Candida albicans
- TEST_PROTOCOL: Minimum inhibitory concentration of compound for antifungal activity against Candida albicans 2
- Type: functional
OBSERVED_PROPERTY: MIC

MOLECULE	TARGET_UNDER_TEST	MIC
CC(=O)N1CCN(c2ccc(OC[C@H]3CO[C@](Cn4ccnc4)(c4ccc(Cl)cc4Cl)O3)cc2)CC1 [KETOCONAZOLE]	Candida albicans	0.1 µM

Field MIC (entry OC(Cn1cncn1)(Cn1cncn1)c1ccc(F)cc1F [FLUCONAZOLE] ) reads 1 µM

Field MIC (entry CCC(C)n1ncn(-c2ccc(N3CCN(c4ccc(OCC5COC(Cn6cncn6)(c6ccc(Cl)cc6Cl)O5)cc4)CC3)cc2)c1=O (configuration not stated) [ITRACONAZOLE] ) reads < 0.1 µM

Field MIC (entry "CCCCOc1ccc(S(=O)(=O)N(CCc2ccc(F)cc2)Cc2c[nH]cn2)cc1" ) reads < 0.1 µM

Field MIC (entry CCCCOc1ccc(S(=O)(=O)N(Cc2cncn2C)C(C)C2CCCCC2)cc1 (configuration not stated) ) reads < 0.1 µM

Field MIC (entry CCCCOc1ccc(S(=O)(=O)N(Cc2c[nH]cn2)C(CC)C2CCCCC2)cc1 (configuration not stated) ) reads < 0.1 µM

Field MIC (entry "CCCCOc1ccc(S(=O)(=O)N(Cc2c[nH]cn2)C(C(C)C)C(C)C)cc1" ) reads < 0.1 µM
